assay: Acute toxicity in po dosed rat; type: organism-based; details: in vivo
Please respond with Criterion met when measured LD50 is strictly beneath 400 mg/kg, and with Criterion not met in all other cases.

INSERT INTO measurements (smiles_string, class_name) VALUES
  ('Cl.O=C(c1ccc(OCCN2CCCCC2)cc1)c1c(-c2ccc(O)cc2)[se]c2cc(O)ccc12', 'Criterion not met'),
  ('Cl.O=C(c1ccc(OCCN2CCCCC2)cc1)c1c(-c2ccc(F)cc2)[se]c2cc(F)ccc12', 'Criterion met'),
  ('CN(C)CCOc1ccc(C(=O)c2c(-c3ccc(O)cc3)[se]c3cc(O)ccc23)cc1.Cl', 'Criterion not met'),
  ('CN(C)CCOc1ccc(C(=O)c2[se]c3cc(O)ccc3c2-c2ccc(O)cc2)cc1.Cl', 'Criterion not met'),
  ('Cl.O=C(c1ccc(OCCN2CCCCC2)cc1)c1[se]c2cc(O)ccc2c1-c1ccc(O)cc1', 'Criterion not met');

====

experiment: Acute toxicity in po dosed rat; type: organism-based; details: in vivo
Please respond with Fulfilled when measured LD50 is strictly beneath 500 mg/kg, and with Not fulfilled in all other cases.

INSERT INTO assay_data (compound, class_name) VALUES
  ('Cl.O=C(c1ccc(OCCN2CCCCCC2)cc1)c1c(-c2ccc(O)cc2)[se]c2cc(O)ccc12', 'Fulfilled'),
  ('CN(C)CCOc1ccc(C(=O)c2c(-c3ccc(F)cc3)[se]c3cc(F)ccc23)cc1.Cl', 'Fulfilled'),
  ('Cl.O=C(c1ccc(OCCN2CCOCC2)cc1)c1c(-c2ccc(F)cc2)[se]c2cc(F)ccc12', 'Not fulfilled'),
  ('Cl.O=C(c1ccc(OCCN2CCOCC2)cc1)c1[se]c2cc(O)ccc2c1-c1ccc(O)cc1', 'Fulfilled'),
  ('C[N+](C)(C)CCOc1ccc(C(=O)c2c(-c3ccc(O)cc3)[se]c3cc(O)ccc23)cc1.[Cl-]', 'Not fulfilled'),
  ('O=[Se]([O-])[O-].[Na+].[Na+] [SODIUM SELENITE]', 'Fulfilled'),
  ('O=C(c1ccc(OCCN2CCCCC2)cc1)c1c(-c2ccc(O)cc2)sc2cc(O)ccc12 [RALOXIFENE]', 'Fulfilled'),
  ('Cl.O=C(c1ccc(OCCN2CCCC2)cc1)c1c(-c2ccc(O)cc2)[se]c2cc(O)ccc12', 'Not fulfilled'),
  ('CCCCCCCCN(C)CCOc1ccc(C(=O)c2c(-c3ccc(O)cc3)[se]c3cc(O)ccc23)cc1.Cl', 'Fulfilled'),
  ('Cl.O=C(c1ccc(OCCN2CCOCC2)cc1)c1c(-c2ccc(O)cc2)[se]c2cc(O)ccc12', 'Not fulfilled'),
  ('CNCCOc1ccc(C(=O)c2c(-c3ccc(O)cc3)[se]c3cc(O)ccc23)cc1.Cl', 'Fulfilled');

====

test: Cytotoxicity against mouse NIH/3T3 cells after 72 hrs by MTT assay; format: cell-based; details: NIH3T3, 72 h
pIC50: −log10 of the molar value.
Outcome Measure: pIC50

INSERT INTO assay_data (compound, outcome_measure, measured_value) VALUES
  ('CN(C)CCOc1ccc(C(=O)c2c(-c3ccc(F)cc3)[se]c3cc(F)ccc23)cc1.Cl', 'pIC50', 4.96),
  ('Cl.O=C(c1ccc(OCCN2CCCCC2)cc1)c1c(-c2ccc(F)cc2)[se]c2cc(F)ccc12', 'pIC50', 5.05),
  ('CN(C)CCOc1ccc(C(=O)c2[se]c3cc(O)ccc3c2-c2ccc(O)cc2)cc1.Cl', 'pIC50', 4.51),
  ('Cl.O=C(c1ccc(OCCN2CCOCC2)cc1)c1c(-c2ccc(F)cc2)[se]c2cc(F)ccc12', 'pIC50', 3.44),
  ('Cl.O=C(c1ccc(OCCN2CCCCC2)cc1)c1[se]c2cc(O)ccc2c1-c1ccc(O)cc1', 'pIC50', 4.55),
  ('Cl.O=C(c1ccc(OCCN2CCOCC2)cc1)c1c(-c2ccc(O)cc2)[se]c2cc(O)ccc12', 'pIC50', 4.44),
  ('Cl.O=C(c1ccc(OCCN2CCCC2)cc1)c1c(-c2ccc(O)cc2)[se]c2cc(O)ccc12', 'pIC50', 4.38),
  ('CN(C)CCOc1ccc(C(=O)c2c(-c3ccc(O)cc3)[se]c3cc(O)ccc23)cc1.Cl', 'pIC50', 4.70),
  ('CCCCCCCCN(C)CCOc1ccc(C(=O)c2c(-c3ccc(O)cc3)[se]c3cc(O)ccc23)cc1.Cl', 'pIC50', 5.10),
  ('CNCCOc1ccc(C(=O)c2c(-c3ccc(O)cc3)[se]c3cc(O)ccc23)cc1.Cl', 'pIC50', 4.49),
  ('O=[Se]([O-])[O-].[Na+].[Na+] [SODIUM SELENITE]', 'pIC50', 4.64),
  ('Cl.O=C(c1ccc(OCCN2CCOCC2)cc1)c1[se]c2cc(O)ccc2c1-c1ccc(O)cc1', 'pIC50', 4.80),
  ('O=C(c1ccc(OCCN2CCCCC2)cc1)c1c(-c2ccc(O)cc2)sc2cc(O)ccc12', 'pIC50', 5.11),
  ('C[N+](C)(C)CCOc1ccc(C(=O)c2c(-c3ccc(O)cc3)[se]c3cc(O)ccc23)cc1.[Cl-]', 'pIC50', 3.34),
  ('Cl.O=C(c1ccc(OCCN2CCCCC2)cc1)c1c(-c2ccc(O)cc2)[se]c2cc(O)ccc12', 'pIC50', 4.66),
  ('Cl.O=C(c1ccc(OCCN2CCCCCC2)cc1)c1c(-c2ccc(O)cc2)[se]c2cc(O)ccc12', 'pIC50', 4.85);

====

Recorded pIC50 values for a group of compounds are listed next.
assay: Cytotoxicity against human HT1080 cells after 72 hrs by MTT assay; type: functional, cell-based; conditions: HT-1080, 72 h
pIC50: −log10 of the molar value.
Outcome Measure: pIC50

INSERT INTO measurements (compound, outcome_measure, measured_value) VALUES
  ('Cl.O=C(c1ccc(OCCN2CCOCC2)cc1)c1c(-c2ccc(F)cc2)[se]c2cc(F)ccc12', 'pIC50', 4.57),
  ('CCCCCCCCN(C)CCOc1ccc(C(=O)c2c(-c3ccc(O)cc3)[se]c3cc(O)ccc23)cc1.Cl', 'pIC50', 5.33),
  ('Cl.O=C(c1ccc(OCCN2CCCCCC2)cc1)c1c(-c2ccc(O)cc2)[se]c2cc(O)ccc12', 'pIC50', 4.57),
  ('O=[Se]([O-])[O-].[Na+].[Na+] [SODIUM SELENITE]', 'pIC50', 5.77),
  ('Cl.O=C(c1ccc(OCCN2CCCC2)cc1)c1c(-c2ccc(O)cc2)[se]c2cc(O)ccc12', 'pIC50', 4.44),
  ('CNCCOc1ccc(C(=O)c2c(-c3ccc(O)cc3)[se]c3cc(O)ccc23)cc1.Cl', 'pIC50', 5.22),
  ('Cl.O=C(c1ccc(OCCN2CCCCC2)cc1)c1[se]c2cc(O)ccc2c1-c1ccc(O)cc1', 'pIC50', 4.52),
  ('O=C(c1ccc(OCCN2CCCCC2)cc1)c1c(-c2ccc(O)cc2)sc2cc(O)ccc12', 'pIC50', 4.47),
  ('Cl.O=C(c1ccc(OCCN2CCCCC2)cc1)c1c(-c2ccc(F)cc2)[se]c2cc(F)ccc12', 'pIC50', 5.35);

====

Recorded pIC50 values for a group of molecules are listed next.
assay: Cytotoxicity against human HT1080 cells after 72 hrs by MTT assay; format: functional, cell-based; conditions: HT-1080, 72 h
pIC50: −log10 of the molar value.
Outcome Measure: pIC50

INSERT INTO results (smiles_string, outcome_measure, measured_value) VALUES
  ('C[N+](C)(C)CCOc1ccc(C(=O)c2c(-c3ccc(O)cc3)[se]c3cc(O)ccc23)cc1.[Cl-]', 'pIC50', 3.88),
  ('Cl.O=C(c1ccc(OCCN2CCCCC2)cc1)c1c(-c2ccc(O)cc2)[se]c2cc(O)ccc12', 'pIC50', 4.92),
  ('Cl.O=C(c1ccc(OCCN2CCOCC2)cc1)c1c(-c2ccc(O)cc2)[se]c2cc(O)ccc12', 'pIC50', 4.34),
  ('CN(C)CCOc1ccc(C(=O)c2c(-c3ccc(O)cc3)[se]c3cc(O)ccc23)cc1.Cl', 'pIC50', 4.32),
  ('Cl.O=C(c1ccc(OCCN2CCOCC2)cc1)c1[se]c2cc(O)ccc2c1-c1ccc(O)cc1', 'pIC50', 5.07),
  ('CN(C)CCOc1ccc(C(=O)c2c(-c3ccc(F)cc3)[se]c3cc(F)ccc23)cc1.Cl', 'pIC50', 5.32),
  ('CN(C)CCOc1ccc(C(=O)c2[se]c3cc(O)ccc3c2-c2ccc(O)cc2)cc1.Cl', 'pIC50', 5.24);

The origin of these recorded values is ChEMBL document CHEMBL3351494.
